Molecular target: T1, PUF4 RNA-binding domain (Saccharomyces cerevisiae, UniProt P25339 537-888)
T1 sequence: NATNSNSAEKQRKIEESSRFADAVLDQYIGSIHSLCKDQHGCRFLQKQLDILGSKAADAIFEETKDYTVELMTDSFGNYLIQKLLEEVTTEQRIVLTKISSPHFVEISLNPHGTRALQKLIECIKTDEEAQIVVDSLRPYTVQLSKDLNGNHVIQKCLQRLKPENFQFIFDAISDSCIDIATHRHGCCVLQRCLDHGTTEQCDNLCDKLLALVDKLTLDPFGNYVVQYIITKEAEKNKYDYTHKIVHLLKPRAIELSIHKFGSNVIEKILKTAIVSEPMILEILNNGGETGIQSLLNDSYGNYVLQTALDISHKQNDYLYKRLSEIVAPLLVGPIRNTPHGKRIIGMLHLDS
Assay: Mg; RNA-MaP; 20 mM Na-HEPES pH 7.4, 30 mM KOAc, 0.75 mM MgCl2, 0.1% Tween-20, 5% glycerol, 0.1 mg/mL BSA, 2 mM DTT; 25 C; 0.0125-409.6 nM protein
Conditions: tags: N-His6-TEV cleaved; C-SNAP kept, Cy3B-labelled; label: tethered on chip by stalled RNA polymerase
endpointLabel: Kd (nM)
Numbers only, in nM.

// for each binder in input: emit Kd
1. Ie_S2_P4E.1_K4.1_C4.1_H4.1_[+3TTCCT]_A4.1_F4.1_T4.1 (ssRNA) RNA: UUUGAUUAAUAUGAUAUCGUUCUUUCUUGUUUCCUAUAUUAUUCUUUCUCGAUAUCAUAUUAAUCUUU
2. UCUCUUGUACACUUAUUAAUUCUCUU (ssRNA) [Id_ii_S1_P5E.4_K5.3_C5.2_[C-2G]_H5.3_A5.1_F5.1_T5.2_[T11A]_[A12T]]
3. Ic_S2_P3E.1_K3.1_C3.1_H3.1_A3.1_[T5A]_[A6T]_F3.1_[T7C]_[A8T]_T3.1 (ssRNA) RNA: UUUGAUUAAUAUGAUAUCGUUCUUUCUUGUAAUCUUUCUUUCUCGAUAUCAUAUUAAUCUUU

Result ::
1. 17.5
2. 4.75
3. 22.5
